target: OCT2 (Homo sapiens, UniProt O15244); assay: OCT2 activity: rhodamine 123 accumulation in HEK-OCT2 cells; conditions: human, pH 7.4
Sequence (O15244 whole entry): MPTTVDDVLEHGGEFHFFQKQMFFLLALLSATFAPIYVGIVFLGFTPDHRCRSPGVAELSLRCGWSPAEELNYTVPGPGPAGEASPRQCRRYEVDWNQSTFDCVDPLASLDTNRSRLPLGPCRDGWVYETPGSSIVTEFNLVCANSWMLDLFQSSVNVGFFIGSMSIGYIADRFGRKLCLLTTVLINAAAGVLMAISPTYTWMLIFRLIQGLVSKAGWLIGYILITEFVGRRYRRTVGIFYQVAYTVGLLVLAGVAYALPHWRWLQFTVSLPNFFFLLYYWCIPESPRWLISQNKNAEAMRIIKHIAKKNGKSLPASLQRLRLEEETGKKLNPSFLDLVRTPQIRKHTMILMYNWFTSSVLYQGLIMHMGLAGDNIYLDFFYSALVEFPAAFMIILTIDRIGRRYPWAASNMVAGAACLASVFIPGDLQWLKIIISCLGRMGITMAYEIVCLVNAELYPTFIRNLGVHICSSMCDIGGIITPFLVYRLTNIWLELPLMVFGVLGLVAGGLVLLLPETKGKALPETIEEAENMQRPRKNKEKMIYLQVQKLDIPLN
I'd appreciate it if you could supply inhibition at 100 μM values for the items below.

> print(dat)
                                   molecule                       assayed.system  result
1  CC(C)[C@@H](Nc1ccc(C(F)(F)F)cc1Cl)C(=O)OC(C#N)c1cccc(Oc2ccccc2)c1 (some centres unmarked) [τ-fluvalinate]  OCT2 (Homo sapiens, UniProt O15244)    ~25%

Now consider the entry below.
So for Cc1c(F)c(F)c(COC(=O)[C@@H]2[C@H](/C=C(\Cl)C(F)(F)F)C2(C)C)c(F)c1F (racemic) [tefluthrin] , the logged inhibition at 100 μM turned out to be ~25%

---

target: OATP1B1 (Homo sapiens); construct: expressed in transfected cells; host or cells: CHO; assay: OATP1B1 activity: E3S accumulation in CHO-OATP1B1 cells; assay type: cell-based; settings: human, pH 7.4; pyrethroid 100 μM; CHO-OATP1B1 cells, E3S; read-out: inhibition of OATP1B1 activity
Sequence (Q9Y6L6 whole entry): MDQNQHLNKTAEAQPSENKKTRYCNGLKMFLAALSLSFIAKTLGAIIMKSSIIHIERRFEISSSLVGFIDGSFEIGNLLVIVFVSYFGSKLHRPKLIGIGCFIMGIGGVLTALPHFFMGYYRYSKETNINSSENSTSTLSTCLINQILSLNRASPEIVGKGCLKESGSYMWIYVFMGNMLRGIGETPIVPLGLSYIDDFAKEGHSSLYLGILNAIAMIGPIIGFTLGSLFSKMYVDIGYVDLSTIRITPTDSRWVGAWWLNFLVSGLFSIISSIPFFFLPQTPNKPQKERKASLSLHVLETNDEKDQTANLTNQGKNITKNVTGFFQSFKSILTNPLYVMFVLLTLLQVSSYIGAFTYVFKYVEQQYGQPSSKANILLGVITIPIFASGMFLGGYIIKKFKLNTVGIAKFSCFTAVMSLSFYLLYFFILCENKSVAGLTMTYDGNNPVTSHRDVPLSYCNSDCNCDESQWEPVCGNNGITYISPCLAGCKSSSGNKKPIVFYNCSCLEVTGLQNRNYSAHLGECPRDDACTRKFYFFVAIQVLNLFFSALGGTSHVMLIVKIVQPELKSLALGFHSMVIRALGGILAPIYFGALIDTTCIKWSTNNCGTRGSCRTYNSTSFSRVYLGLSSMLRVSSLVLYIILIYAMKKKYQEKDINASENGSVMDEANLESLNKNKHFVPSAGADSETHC
Test readout: inhibition at 100 μM

So for CC(C)=CC1C(C(=O)OCN2C(=O)C3=C(CCCC3)C2=O)C1(C)C (stereo not shown) , the logged inhibition at 100 μM turned out to be > 85%

---

Target: OCT1 (Homo sapiens, UniProt O15245)
Sequence (O15245 1-554): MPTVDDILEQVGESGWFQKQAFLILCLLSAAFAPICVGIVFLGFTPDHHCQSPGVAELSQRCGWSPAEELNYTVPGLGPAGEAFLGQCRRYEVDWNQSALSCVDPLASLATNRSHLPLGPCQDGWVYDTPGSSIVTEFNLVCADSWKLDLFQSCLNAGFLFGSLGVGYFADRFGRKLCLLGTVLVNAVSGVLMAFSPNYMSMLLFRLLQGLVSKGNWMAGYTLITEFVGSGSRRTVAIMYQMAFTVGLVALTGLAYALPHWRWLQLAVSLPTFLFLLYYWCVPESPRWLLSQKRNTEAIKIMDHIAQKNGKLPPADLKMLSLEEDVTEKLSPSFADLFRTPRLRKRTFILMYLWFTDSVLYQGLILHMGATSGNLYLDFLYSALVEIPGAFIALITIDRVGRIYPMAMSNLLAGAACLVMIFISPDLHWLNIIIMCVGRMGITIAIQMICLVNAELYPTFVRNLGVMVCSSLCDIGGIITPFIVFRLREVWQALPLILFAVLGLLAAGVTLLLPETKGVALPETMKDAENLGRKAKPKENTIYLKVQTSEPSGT
Assay: OCT1 activity: DAPI accumulation in HEK-OCT1 cells
Details: pyrethroid 100 μM; DAPI
Test readout: effect on OCT1 activity

> print(dat)
                                   molecule              result
1  C#CCC1=C(C)C(OC(=O)C2C(C=C(C)C)C2(C)C)CC1=O (stereo not drawn)  markedly inhibited
2  C#CCN1CC(=O)N(COC(=O)[C@@H]2C(C=C(C)C)C2(C)C)C1=O (mixture of isomers)  markedly inhibited

---

Target: OATP2B1 (Homo sapiens, UniProt O94956)
Sequence (O94956 1-709): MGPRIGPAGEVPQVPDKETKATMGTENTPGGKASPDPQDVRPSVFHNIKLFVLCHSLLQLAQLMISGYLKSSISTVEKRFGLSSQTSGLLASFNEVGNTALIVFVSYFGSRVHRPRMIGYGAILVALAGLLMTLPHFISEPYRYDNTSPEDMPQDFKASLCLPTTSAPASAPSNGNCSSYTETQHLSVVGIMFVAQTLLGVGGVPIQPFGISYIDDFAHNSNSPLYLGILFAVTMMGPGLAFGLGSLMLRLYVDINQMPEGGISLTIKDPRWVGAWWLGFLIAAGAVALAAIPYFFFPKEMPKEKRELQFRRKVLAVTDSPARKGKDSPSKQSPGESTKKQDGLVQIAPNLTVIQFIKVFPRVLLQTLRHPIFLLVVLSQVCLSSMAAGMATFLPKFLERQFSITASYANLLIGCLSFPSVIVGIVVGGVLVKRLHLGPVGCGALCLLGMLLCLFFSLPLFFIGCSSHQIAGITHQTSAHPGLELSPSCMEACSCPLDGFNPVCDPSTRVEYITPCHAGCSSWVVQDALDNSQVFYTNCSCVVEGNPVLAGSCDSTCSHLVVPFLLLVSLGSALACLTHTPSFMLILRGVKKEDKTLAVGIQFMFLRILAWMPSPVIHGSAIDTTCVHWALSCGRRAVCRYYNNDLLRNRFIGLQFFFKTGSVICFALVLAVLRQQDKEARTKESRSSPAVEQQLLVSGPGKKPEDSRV
Assay: OATP2B1 activity: E3S accumulation in HEK-OATP2B1 cells
Experimental: The effects of pyrethroids on activity of ABC and SLC transporters were determined through measuring cellular accumulation or retention of fluorescent or radiolabeled reference substrates for transporters, in the presence or absence of reference inhibitors, as previously described. The nature of cells and reference substrates and inhibitors used for transport assays are summarized in S3 Table. […]
I'd appreciate it if you could supply EC50 values for the items below.
I'd appreciate it if you wrote the number followed by its unit.

> print(dat)
                                   compound   result
1  CC(C)=CC1C(C(=O)OCN2C(=O)C3=C(CCCC3)C2=O)C1(C)C (centres unmarked)  10.1 µM

Now consider the entry below.
So for C=CCC1=C(C)C(OC(=O)C2C(C=C(C)C)C2(C)C)CC1=O (centres unmarked) , the logged EC50 turned out to be 37.8 µM

---

target: MRP2 (Homo sapiens, UniProt Q92887); construct: multidrug resistance-associated protein (MRP) 2/ABCC2-expressing human hepatoma HuH-7 cells; endogenous in cells; host or cells: HuH-7 human hepatoma cells; experiment: MRP2 activity: CF accumulation in HuH-7 cells; format: cell-based; conditions: human, pH 7.4
Sequence (Q92887 whole entry): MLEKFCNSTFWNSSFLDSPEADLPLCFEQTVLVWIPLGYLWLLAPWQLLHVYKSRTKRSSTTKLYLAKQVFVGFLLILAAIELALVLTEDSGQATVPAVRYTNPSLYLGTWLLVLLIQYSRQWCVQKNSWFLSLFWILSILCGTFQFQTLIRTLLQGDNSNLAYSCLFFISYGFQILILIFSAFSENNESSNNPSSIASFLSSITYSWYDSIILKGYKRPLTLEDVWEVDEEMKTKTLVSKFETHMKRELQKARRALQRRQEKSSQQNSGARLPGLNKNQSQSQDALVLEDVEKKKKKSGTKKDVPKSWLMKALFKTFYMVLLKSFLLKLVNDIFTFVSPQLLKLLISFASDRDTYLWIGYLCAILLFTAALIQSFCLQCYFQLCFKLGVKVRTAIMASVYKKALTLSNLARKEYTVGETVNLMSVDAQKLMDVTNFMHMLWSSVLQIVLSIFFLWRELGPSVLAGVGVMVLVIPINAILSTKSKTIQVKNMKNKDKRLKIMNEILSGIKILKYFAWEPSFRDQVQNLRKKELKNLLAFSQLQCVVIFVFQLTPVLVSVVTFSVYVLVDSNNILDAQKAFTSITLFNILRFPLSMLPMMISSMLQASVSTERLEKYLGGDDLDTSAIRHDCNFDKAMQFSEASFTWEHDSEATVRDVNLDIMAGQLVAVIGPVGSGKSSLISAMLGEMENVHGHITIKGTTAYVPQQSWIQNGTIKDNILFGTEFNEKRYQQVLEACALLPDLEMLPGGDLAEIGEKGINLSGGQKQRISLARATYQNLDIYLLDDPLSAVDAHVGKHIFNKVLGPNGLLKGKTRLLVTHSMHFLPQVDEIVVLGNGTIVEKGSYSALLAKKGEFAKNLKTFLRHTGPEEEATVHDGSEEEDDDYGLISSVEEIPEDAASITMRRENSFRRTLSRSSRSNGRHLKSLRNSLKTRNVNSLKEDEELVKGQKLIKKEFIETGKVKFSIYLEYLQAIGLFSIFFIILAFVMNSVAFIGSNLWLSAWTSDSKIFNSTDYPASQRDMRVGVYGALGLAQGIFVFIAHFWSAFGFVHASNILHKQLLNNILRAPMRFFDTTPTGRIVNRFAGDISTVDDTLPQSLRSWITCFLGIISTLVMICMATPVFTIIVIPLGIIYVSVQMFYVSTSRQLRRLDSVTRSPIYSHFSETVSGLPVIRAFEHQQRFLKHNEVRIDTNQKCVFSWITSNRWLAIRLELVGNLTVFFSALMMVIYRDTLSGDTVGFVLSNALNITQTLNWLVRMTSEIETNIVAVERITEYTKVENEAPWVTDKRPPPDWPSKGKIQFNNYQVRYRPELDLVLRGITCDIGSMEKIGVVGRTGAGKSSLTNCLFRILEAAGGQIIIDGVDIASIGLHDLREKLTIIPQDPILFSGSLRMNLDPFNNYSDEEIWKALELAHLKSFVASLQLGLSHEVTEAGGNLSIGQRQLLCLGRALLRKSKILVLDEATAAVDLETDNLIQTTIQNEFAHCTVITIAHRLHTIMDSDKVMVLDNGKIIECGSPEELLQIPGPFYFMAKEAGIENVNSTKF
Test readout: inhibition at 100 μM (%)
One number for each entry, in %.

Reported MRP2 (Homo sapiens, UniProt Q92887) inhibition at 100 μM for item C=CCC1=C(C)C(OC(=O)C2C(C=C(C)C)C2(C)C)CC1=O (stereo not shown) was 83.8

---

target: P-gp (Homo sapiens, UniProt P08183); assay: P-gp activity: rhodamine 123 accumulation in MCF7R cells
Sequence (P08183 whole entry): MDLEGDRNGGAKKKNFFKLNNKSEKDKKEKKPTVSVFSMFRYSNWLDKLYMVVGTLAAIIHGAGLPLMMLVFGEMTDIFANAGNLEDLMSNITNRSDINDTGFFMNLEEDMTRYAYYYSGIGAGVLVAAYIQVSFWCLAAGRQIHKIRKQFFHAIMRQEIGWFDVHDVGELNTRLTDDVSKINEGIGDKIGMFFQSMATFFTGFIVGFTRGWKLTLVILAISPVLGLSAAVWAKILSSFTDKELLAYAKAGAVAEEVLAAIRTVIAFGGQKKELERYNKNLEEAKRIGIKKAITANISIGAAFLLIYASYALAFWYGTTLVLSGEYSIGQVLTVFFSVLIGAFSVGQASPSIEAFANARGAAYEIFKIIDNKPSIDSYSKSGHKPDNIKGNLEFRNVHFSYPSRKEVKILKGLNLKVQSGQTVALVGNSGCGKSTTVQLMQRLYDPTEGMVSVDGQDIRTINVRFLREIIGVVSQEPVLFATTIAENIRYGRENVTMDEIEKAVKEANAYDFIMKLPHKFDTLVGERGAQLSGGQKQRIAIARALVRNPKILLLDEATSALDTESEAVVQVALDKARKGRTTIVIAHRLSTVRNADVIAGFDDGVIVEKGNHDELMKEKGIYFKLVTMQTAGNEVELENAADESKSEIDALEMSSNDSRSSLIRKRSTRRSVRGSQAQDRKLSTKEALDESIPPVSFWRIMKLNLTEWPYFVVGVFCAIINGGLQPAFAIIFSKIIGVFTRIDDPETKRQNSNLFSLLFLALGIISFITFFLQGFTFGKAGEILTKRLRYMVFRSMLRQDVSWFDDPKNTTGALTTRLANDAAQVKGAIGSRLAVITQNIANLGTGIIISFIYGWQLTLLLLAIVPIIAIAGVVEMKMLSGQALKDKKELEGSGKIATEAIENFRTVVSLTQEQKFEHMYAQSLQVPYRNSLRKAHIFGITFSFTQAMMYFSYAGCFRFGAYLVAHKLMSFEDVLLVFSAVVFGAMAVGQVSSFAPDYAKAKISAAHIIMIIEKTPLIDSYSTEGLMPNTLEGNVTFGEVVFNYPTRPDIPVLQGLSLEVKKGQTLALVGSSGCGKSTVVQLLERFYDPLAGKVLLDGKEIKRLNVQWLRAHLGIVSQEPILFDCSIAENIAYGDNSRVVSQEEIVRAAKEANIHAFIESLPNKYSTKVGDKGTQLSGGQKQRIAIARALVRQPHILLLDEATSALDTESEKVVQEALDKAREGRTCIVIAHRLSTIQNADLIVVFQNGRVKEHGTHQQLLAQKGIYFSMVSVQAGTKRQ
pIC50: −log10 of the molar value.
Test readout: pIC50

> print(dat)
                                   compound  result
1  C=CCC1=C(C)C(OC(=O)C2C(C=C(C)C)C2(C)C)CC1=O (centres unmarked)  < 4.00

So for CC(C)=CC1C(C(=O)OCN2C(=O)C3=C(CCCC3)C2=O)C1(C)C (centres unmarked) , the logged pIC50 turned out to be < 4.00

---

molecular target: MRP2 (Homo sapiens, UniProt Q92887); construct: multidrug resistance-associated protein (MRP) 2/ABCC2-expressing human hepatoma HuH-7 cells; endogenous in cells; host or cells: HuH-7 human hepatoma cells; experiment: MRP2 activity: CF accumulation in HuH-7 cells; format: cell-based; conditions: human, pH 7.4; pyrethroid 100 μM; HuH-7 cells, CF; read-out: inhibition of MRP2 activity
Test readout: inhibition at 100 μM (%)
Answers are plain numbers, in %.

So for CC(C)=CC1C(C(=O)OCN2C(=O)C3=C(CCCC3)C2=O)C1(C)C (stereo not shown) [tetramethrin] , the logged inhibition at 100 μM turned out to be 58.3

---

molecular target: OCT1 (Homo sapiens, UniProt O15245); assay: OCT1 activity: DAPI accumulation in HEK-OCT1 cells; settings: human, HEK-OCT1 cells, pH 7.4, probe DAPI
Test readout: inhibition at 100 μM (%)
Answers are plain numbers, in %.

So for CC1(C)[C@H](C=C(Cl)Cl)[C@H]1C(=O)O[C@@H](C#N)c1cccc(Oc2ccccc2)c1 [β-cypermethrin] , the logged inhibition at 100 μM turned out to be 30.1

---

biological target: OCT2 (Homo sapiens, UniProt O15244); experiment: OCT2 activity: rhodamine 123 accumulation in HEK-OCT2 cells; settings: pyrethroid 100 μM
Test readout: effect on OCT2 activity

> print(dat)
                                   molecule            result
1  C#CCC1=C(C)C(OC(=O)C2C(C=C(C)C)C2(C)C)CC1=O (stereo not shown) [prallethrin]         inhibited
2  CC(C)=CC1C(C(=O)OCN2C(=O)C3=C(CCCC3)C2=O)C1(C)C (stereo not shown) [tetramethrin]  markedly inhibit
3  C#CCN1CC(=O)N(COC(=O)[C@@H]2C(C=C(C)C)C2(C)C)C1=O (mixture of isomers) [imiprothrin]         inhibited
4  C=CCC1=C(C)C(OC(=O)C2C(C=C(C)C)C2(C)C)CC1=O (stereo not shown) [allethrin]  markedly inhibit

Data origin: paper PMC5242521
